# tgt: Proteasome Macropain subunit MB1 (Homo sapiens)
# Sequence (P28074 whole entry): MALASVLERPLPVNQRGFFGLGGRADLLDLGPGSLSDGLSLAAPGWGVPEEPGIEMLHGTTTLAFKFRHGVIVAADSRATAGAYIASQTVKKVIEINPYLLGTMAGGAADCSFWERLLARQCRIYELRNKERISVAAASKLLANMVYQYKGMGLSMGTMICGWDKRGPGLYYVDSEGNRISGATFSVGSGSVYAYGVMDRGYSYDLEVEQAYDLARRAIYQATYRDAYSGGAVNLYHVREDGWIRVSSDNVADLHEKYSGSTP
# assay_summary: Inhibition of chymotrypsin-like activity of 20S proteasome in human HL60 cells using Suc-LLVYaminoluciferin as substrate pretreated for 2 hrs followed by substrate addition by […]
readout_name: IC50 (nM)
Entry rule: numbers only, all in nM.

stdin: Recorded IC50 for CC(C)C[C@H](NC(=O)OCc1ccccc1)C(=O)N[C@@H](Cc1ccc2ccccc2c1)C(=O)N1CCC[C@H]1B(O)O , please?
stdout: 18

---

# Test system: A549
# assay_summary: Cytotoxicity against human A549 cells after 72 hrs by MTT assay
# Format: functional, cell-based
# applied_conditions: A549, 72 h
readout_name: IC50

stdin: Recorded IC50 for CC(C)C[C@H](NC(=O)OCc1ccccc1)C(=O)N[C@@H](Cc1ccc2ccccc2c1)C(=O)N1CCC[C@H]1B(O)O , please?
stdout: 5.99 µM
